experiment: Muscle levels 24 hours after intramuscular injection
Assay type: in vivo, Balb/C mice
test-conditions: Balb/C, mouse, muscle, intramuscular, 100 μg, +Al—H (adsorbed), 100 μg i.m.; read-out: Levels of compound in muscle 24 hours after injection
concentration at 24 h overview
The reply should contain only the number, in µM.

Some solved entries appear below for comparison.
record-smiles: COCCOc1cc2c(nc(O)n2Cc2ccc(CP(=O)(O)O)cc2)c(N)n1
number: 2.88
--
record-smiles: CCCCCNc1nc(N)nc(C)c1Cc1ccc(OCCOCCC(F)(F)P(=O)(O)O)cc1OC
number: 0.924
--
record-smiles: CCCCCCCCCCCC(=O)OC[C@H](CSC[C@H](N)C(=O)NCCOCCOCCOCCP(=O)(O)O)OC(=O)CCCCCCCCCCC
number: 14.5

# evaluate next
### Prompt Quick check: concentration at 24 h of CCCCCCCCCCCC(=O)OC[C@H](CSC[C@H](N)C(=O)NC1(COCCCP(=O)(O)O)CC1)OC(=O)CCCCCCCCCCC ?
### Response 25.3

The values you see were collected from patent US20120177681A1.
